Source: ChEMBL document CHEMBL3988442

- measured target: Tyrosyl-tRNA synthetase, putative (Trypanosoma cruzi (strain CL Brener)) (UniProt Q4DSP6)
- Sequence (Q4DSP6 as listed by the source): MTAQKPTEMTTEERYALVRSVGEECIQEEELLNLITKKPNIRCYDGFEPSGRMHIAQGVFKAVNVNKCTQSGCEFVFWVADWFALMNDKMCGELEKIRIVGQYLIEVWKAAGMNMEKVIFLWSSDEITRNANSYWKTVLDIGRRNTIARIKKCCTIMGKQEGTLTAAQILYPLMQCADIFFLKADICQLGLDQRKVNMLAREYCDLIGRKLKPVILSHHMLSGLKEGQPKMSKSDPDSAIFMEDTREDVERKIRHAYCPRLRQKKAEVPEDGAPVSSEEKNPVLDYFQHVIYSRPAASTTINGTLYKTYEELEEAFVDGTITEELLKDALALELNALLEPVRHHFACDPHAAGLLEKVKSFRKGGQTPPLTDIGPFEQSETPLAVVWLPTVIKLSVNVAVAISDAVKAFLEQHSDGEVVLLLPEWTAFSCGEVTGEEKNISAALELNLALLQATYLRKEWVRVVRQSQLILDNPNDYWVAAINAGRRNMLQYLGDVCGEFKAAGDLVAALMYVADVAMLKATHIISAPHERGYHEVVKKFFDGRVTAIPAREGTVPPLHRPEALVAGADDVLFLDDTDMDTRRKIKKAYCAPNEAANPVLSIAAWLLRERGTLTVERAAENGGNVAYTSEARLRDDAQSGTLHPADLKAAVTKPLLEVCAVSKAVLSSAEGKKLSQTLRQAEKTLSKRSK
- assay summary: Trypanosoma cruzi tyrosyl tRNA synthetase (TcYRS) _High Tyrosine SOP
- Type: functional
- Parameters: scale not given: in the data most compounds retested in dose-response had high values
- test context: 30 µM
Reported values of Percent Effect for individual entries
readout name: Percent Effect (%)

In [3]: df
Out[3]:
                                    molecule  recorded_measurement
 0  c1ccc(Oc2cc(CNCC3CNc4ccnn4C3)ccn2)cc1 (centres undefined)                  19.8
 1  O=C1CC(c2ccsc2)c2c(n(C3CCOCC3)[nH]c2=O)N1 (centres undefined)                  6.35
 2               Cn1nc(CNC(=O)C2CC2)cc1C1CC1                     0
 3  CC(NC(=O)NCCCn1ccnc1)c1ccc2c(c1)CCC(=O)N2 (centres undefined)                  5.42
 4    O=C(NCc1cccc2cccnc12)N1CCC(n2cncn2)CC1                  9.38
 5  CNS(=O)(=O)Cc1ccc(CNc2cncc(-n3cccn3)n2)cc1                  7.77
 6      O=C(c1ccc2c(c1)COC2)N1CCN(CC2CC2)CC1                  4.43
 7  Cc1ccc(-c2cc(C(=O)NC(C)C(=O)N3CCCCC3)on2)cc1 (centres undefined)                  2.13
 8    CCn1c(CN2CCN(CC(N)=O)CC2)nc2c(F)cccc21                  7.35
 9  COc1ccc(CNC(C)c2cccc(Cl)c2)c(OC)c1OC (centres undefined)                 0.546
10  CCc1noc(C(C)N2CCN(Cc3nc(C)c(C)o3)CC2)n1 (centres undefined)                 -5.39
11  CC(C)COC(C)C(=O)N1CCN(S(C)(=O)=O)CC1 (centres undefined)                   4.3
12  Cn1cc(C(=O)CC2CCCN2C(=O)c2n[nH]c3ccccc23)cn1 (centres undefined)                  7.29
13           CC(C)Oc1ncnc2c1CCN(Cc1cccs1)CC2                  6.25
14  O=C(NCCc1cccc(F)c1)NCC(O)c1cccc(F)c1 (centres undefined)                  8.37
15  COc1ccc(F)cc1C(C)NC(=O)Nc1nnc(C)s1 (centres undefined)                  5.38
16            COc1cc(CNC(=O)NCCCF)cc(Br)c1OC                  1.64
17  COc1c(C2CCCN2CC(=O)Nc2nc(C)cs2)c(C)nn1C (centres undefined)                  4.95
18  CCn1ccnc1CN1CCOC(CNc2cccnn2)C1 (centres undefined)                  4.85
19        Clc1ccc(OCCN2CCN(CCn3cncn3)CC2)cc1                  1.59
20  Cc1cc(NC(=O)CN(C)C2CCCN(c3cccnn3)C2)n(C)n1 (centres undefined)                  4.43
21  COCCC(=O)N1CCC2(CN(Cc3ccc(OC)c(F)c3)C2)C1                  6.25
22  Cc1n[nH]c(C)c1-c1cnc(CC2CCN(C)C2)cn1 (centres undefined)                  4.25
23  COc1ccccc1Oc1ncccc1CNC(=O)[C@@H](C)NC(C)=O                   2.1
24             Cc1nc(CN2CCc3ncnc(C)c3CC2)cs1                  2.16
25  OC(CN(Cc1ccccc1)Cc1ccncc1)c1cccs1 (centres undefined)                  1.07
26  CC1=Nc2c(c(=O)[nH]n2C2CCCC2)C(c2cccc(O)c2)S1 (centres undefined)                  14.8
27  Cc1noc(C)c1CNCC1CCN(CC(O)c2ccccc2)CC1 (centres undefined)                  4.17
28     O=C(c1cnn(-c2ccccc2F)c1)N1CCN(CCO)CC1                -0.546
29  Cc1ncsc1C(=O)NC1CCN(CC(=O)N(C)C(C)(C)C#N)CC1                  1.48
30             CC(C)Cc1noc(CN2CCN(CCO)CC2)n1                  3.43
31  CC(CNC(=O)N1CCN(c2cnccn2)CC1)Cc1cccs1 (centres undefined)                  0.99
32  CCn1ccnc1CN1CCN(Cc2ccccn2)CC1C (centres undefined)                  8.91
33  Cc1cc(-c2cnc(N3CCNC(=O)C3)nc2-c2ccc(C)o2)on1                  5.32
34  Cc1nc(CN(C)C2CCCN(c3cccnn3)C2)no1 (centres undefined)                  4.85
35  CC(COc1ccc(F)cc1F)NC(=O)NCCN1CCOCC1 (centres undefined)                  1.06
36  CC(Oc1ccccc1C(F)(F)F)C(=O)NCCC(=O)N(C)C (centres undefined)                  4.95
37  Cc1nc(C2CCCN2Cc2nc(C)c(C)o2)no1 (centres undefined)                  13.9
38  Cc1nc2n(n1)CC(Nc1cc(C(F)(F)F)nc3ncnn13)CC2 (centres undefined)                  2.15
39         O=C(Cc1ccc2c(c1)CCC2)NCCNc1ncccn1                   6.4
40  O=C(CC1CN(Cc2ccccc2)CCO1)Nc1ccccc1F (centres undefined)                  8.91
41    O=C(Cn1nc(-c2ccc(F)cc2)oc1=O)Nc1ccccc1                  6.37
42  Nc1cc(N2CCCC2c2cnccn2)ncn1 (centres undefined)                   8.6
43   Cc1ccccc1C(=O)CN1C(=O)c2ccccc2CS1(=O)=O                 -25.9
44  CCc1nc(C(=O)N2CCN(C)CC2C)nn1-c1ccccc1Cl (centres undefined)                  5.42
45  CN(C)C(=O)C1CN(Cc2c[nH]cn2)CCN(C2CCOCC2)C1 (centres undefined)                  6.45
46  CCc1noc(C)c1C(=O)N1CCCC1Cn1nc(C)cc1C (centres undefined)                  4.43
47      CC(C)NC(=O)NCCCc1cc(N)n(-c2ccccc2)n1                  5.38
48  O=C(O)c1ccc(F)c(S(=O)(=O)Nc2ccc(-n3cccn3)c(Cl)c2)c1                 -1.64
